- target-entity: T1, GST-fused ligand-binding domain of human estrogen receptor β (amino acids 263–530) (human, UniProt Q92731 263-530)
- T1 construct: cDNA from OriGene Technologies; Subcloned into pGEX-6p-1; Captured on the chip through an anti-GST antibody; Incubated beforehand with 10 μM E2 or 10 μM BPC (small molecules) in two of the three SPR conditions; also called GST-ERβ-LBD; ERβ-LBD; source: E. coli BL21α, purified (Glutathione-Sepharose 4B, gel filtration on Sephadex G-10)
- T1 sequence (Q92731 263-530): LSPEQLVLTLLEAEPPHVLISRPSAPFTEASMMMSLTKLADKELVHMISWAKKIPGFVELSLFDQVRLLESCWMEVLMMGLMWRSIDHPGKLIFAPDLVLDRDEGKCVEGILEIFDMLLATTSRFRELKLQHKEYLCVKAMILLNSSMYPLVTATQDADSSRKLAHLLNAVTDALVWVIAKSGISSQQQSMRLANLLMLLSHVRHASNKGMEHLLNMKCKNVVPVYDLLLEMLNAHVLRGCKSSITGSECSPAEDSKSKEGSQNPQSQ
- test-description: SPR; Biacore T100; GST-ERβ-LBD incubated with 10 μM BPC for 1 h, captured on anti-GST antibody on a CM5 chip at 25 °C; SRC1 peptide injected with BPC; HBS-EP+ buffer
- particulars: both partners purified
assay-readout: pKd
Notebook: values listed as pKd are -log10 of the concentration (mol/L).

**Query** Provide only the value of recorded pKd for ERHKILHRLLQEG (source: synthetic peptide (ABI 433A, solid phase, Fmoc chemistry)) [SRC1 peptide (amino acids 685–697) derived from human nuclear receptor coactivator 1]
**Result** 4.79
